Test system: IGROV-1
Assay: NCI tumour cell line growth inhibition, 48 h
Active and inactive are the calls of the source. No stated cut-off is given here; in the data, active = GI50 up to about 1.1 µM and inactive = higher.
Would you mind answering with one of these outcomes? 1.0 (active), 0.0 (inactive)

Problem: Recorded test call requested for "CSc1nc(C#N)c(N)n1C"
Result: 0.0

Problem: Given "CC(C)(C)C1CCC2(CC1)CCN(CCCN1CCOCC1)CC2" , state the outcome it received in this test.
Result: 0.0

Problem: So what was the verdict on CCCC(=O)NC1CCc2cc(OC)c(OC)c(OC)c2-c2ccc(OC)c(=O)cc21 (configuration not stated) in this test?
Result: 1.0

Problem: Short answer needed: outcome of this test for COc1cc(C(c2cc3c(cc2O)OCO3)N2CCCC2)cc(OC)c1OC (configuration not stated) ?
Result: 0.0

Problem: Answer briefly: the call reported for "CCCN(CCC)C(=O)c1c(N2CCN(C)CC2)c2cccnc2n2c(C)cnc12" in this assay.
Result: 0.0

Problem: Just curious, what result did CC(O)C1(CNc2cc(Cl)nc(N)n2)CC(CCc2ccccc2)C1 (configuration not stated) get here?
Result: 0.0

Problem: Which outcome was entered for the compound C[C@]12Cc3cn[nH]c3C(=O)C1CC[C@@H]1C2CC[C@@]2(C)C1CC[C@]2(C)O (some centres not stated) in this test?
Result: 0.0

Problem: What did the test return for Cc1cc(C)c(C2CC(O)C(CO)O2)cc1C (configuration not stated) ?
Result: 0.0

Problem: Lab log entry: O=C(O)C1=NN(c2ccc(S(=O)(=O)O)cc2)C2(C1)SCC(=O)N2c1nc2ccccc2s1 (configuration not stated) — outcome as called in the assay?
Result: 0.0

Problem: # lookup: test call for CCC12C=CCN3CC[C@]4(C(=C(C(=O)OC)[C@@H]1Nc1ccn(C5OC(COC(C)=O)C(OC(C)=O)C5OC(C)=O)c(=O)n1)Nc1ccccc14)C32 (some centres not stated)
Result: 0.0

Problem: Hi, do you know how "O=c1[nH]c(=O)n(COCc2ccccc2)c2ccccc12" came out in this test?
Result: 0.0

Problem: What outcome does the record of this test show for CCN1CCC(O)(c2ccc(Oc3ccc(Cl)cc3)cc2)C(C(=O)c2ccc(Oc3ccc(Cl)cc3)cc2)C1 (configuration not stated) ?
Result: 0.0

---

Test system: Malme-3M
Test: NCI tumour cell line growth inhibition, 48 h
Activity calls are given as the source filed them. No stated cut-off is given here; in the data, active = GI50 up to about 1.1 µM and inactive = higher.
Field 'call' accepts active, inactive

Problem: Outcome? CC(N/N=C(\S)N1CCCCCC1)c1cccnn1 (stereo not drawn)
Result: active

Problem: For "COc1ccc(Nc2nc3cc(C(F)(F)F)ccc3n3cccc23)cc1OC" , what call appears in the results of this test?
Result: inactive

Problem: Hi team, can someone confirm the assay call for "[O-][S+]1Nc2c(Cl)cc(Cl)c3c(Cl)cc(Cl)c(c23)N1" ?
Result: inactive

Problem: What did the test return for CCC12C=CCN3CC[C@]4(C(=C(C(=O)OC)[C@@H]1Nc1ccn(C5OC(COC(C)=O)C(OC(C)=O)C5OC(C)=O)c(=O)n1)Nc1ccccc14)C32 (stereo partly drawn) ?
Result: inactive

Problem: Which outcome did this test record for the molecule CC(Br)C(=O)Nc1ccc(C(=O)O)c(O)c1 (stereo not drawn) ?
Result: inactive

Problem: Assay outcome for CC1OC(OC2C(O[C@H]3CC[C@@]4(C)C(=CC[C@H]5[C@@H]6C[C@@H]7O[C@]8(CC[C@@H](C)CO8)[C@@H](C)[C@@H]7[C@@]6(C)CC[C@@H]54)C3)OC(CO)C(O)C2OC2OC(CO)C(O)C(O)C2O)C(O)C(O)C1O (stereo partly drawn) : what was it?
Result: inactive

Problem: Hi team, can someone confirm the assay call for O=C1CCCCCCCCCCC1CCCCCBr (stereo not drawn) ?
Result: inactive

Problem: Per the records of this test, what outcome belongs to "Cc1ccccc1NC(=O)/C(C#N)=N\Nc1[nH]cnc1C(N)=O" ?
Result: inactive

Problem: Could you kindly confirm the outcome this assay logged for CN/N=C(\C)C(CN1CCCCC1)C(C1=C(O)c2ccccc2OC1)c1ccccc1 (stereo not drawn) ?
Result: inactive

Problem: I'd appreciate the recorded outcome for "CC(=O)CCCCO" from this test.
Result: inactive

Problem: For this molecule, state the assay outcome: "c1ccc(CSC2(SCc3ccccc3)CCCCC2)cc1"
Result: inactive

Problem: Answer briefly: the call reported for N=C(N)N/N=C(/CC1OC(=O)c2ccccc21)c1ccc2ccccc2c1 (stereo not drawn) in this assay.
Result: inactive

Problem: Call for entry "CCCCc1c(C(=O)OC(C)(C)C)cc(C#Cc2cc(C(=O)OC(C)(C)C)c(CCCC)c(C(=O)OC(C)(C)C)c2)cc1C(=O)OC(C)(C)C" :
Result: inactive
